target: MST1 (Homo sapiens); test: In vitro measurement of MST1 inhibition (Z′-Lyte kinase assay); assay type: biochemical; details: 50 μM ATP; read-out: IC50 (μM) 50 μM ATP
Sequence (Q13043 whole entry): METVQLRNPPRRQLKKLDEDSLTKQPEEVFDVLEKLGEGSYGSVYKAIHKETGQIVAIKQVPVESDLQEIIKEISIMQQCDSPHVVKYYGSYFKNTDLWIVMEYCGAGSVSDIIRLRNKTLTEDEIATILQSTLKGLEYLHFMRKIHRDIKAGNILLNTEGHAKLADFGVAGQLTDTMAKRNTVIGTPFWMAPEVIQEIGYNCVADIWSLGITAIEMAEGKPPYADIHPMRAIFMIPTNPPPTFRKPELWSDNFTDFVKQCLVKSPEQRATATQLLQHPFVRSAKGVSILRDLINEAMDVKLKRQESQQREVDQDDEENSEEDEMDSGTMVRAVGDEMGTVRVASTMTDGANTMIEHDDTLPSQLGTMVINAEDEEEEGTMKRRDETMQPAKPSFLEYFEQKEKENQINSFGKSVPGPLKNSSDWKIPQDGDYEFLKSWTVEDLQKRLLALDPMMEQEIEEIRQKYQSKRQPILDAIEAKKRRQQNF
property label: IC50

Guide cases for IC50, answers given:
{"smiles input": "Nc1ncc(-c2ccc(S(=O)(=O)NC3CC3)cn2)cc1-c1ccc2c(c1)CCNC2=O", "IC50": "< 0.01 µM"}
{"smiles input": "CN(C1CC1)S(=O)(=O)c1ccc(-c2cnc(N)c(C3=CCN(C(=O)CC#N)CC3)c2)cc1", "IC50": "< 0.15 µM"}
{"smiles input": "CCN(C)S(=O)(=O)c1ccc(-c2cnc(N)c(-c3ccc4c(O)nccc4c3)n2)cc1", "IC50": "< 0.01 µM"}
{"smiles input": "CCN(CC)S(=O)(=O)c1ccc(-c2cnc(N)c(-c3ccc4c(c3)CCCC(=O)N4)c2)cc1", "IC50": "< 0.15 µM"}
{"smiles input": "N#CC1(c2ccc(-c3cnc(N)c(-c4ccc5c(c4)CCNC5=O)n3)cc2)CCOCC1", "IC50": "< 0.01 µM"}
{"smiles input": "NC(=O)c1ccc(-c2cc(-c3ccc(S(=O)(=O)NC4CC4)cc3)cnc2N)cc1", "IC50": "< 0.05 µM"}
{"smiles input": "CCCN(C)S(=O)(=O)c1ccc(-c2cnc(N)c(-c3ccc4c(c3)CCNC4=O)c2)nc1", "IC50": "< 0.01 µM"}
{"smiles input": "CCCN(C)S(=O)(=O)c1ccc(-c2cnc(N)c(-c3ccc4c(c3)CCNC4=O)n2)cc1Cl", "IC50": "< 0.01 µM"}

# input Dear colleague, I am looking for the recorded IC50 of the following compound: "Cc1cc(-c2cnc(N)c(-c3ccc4c(c3)OCCNC4=O)n2)ccc1S(=O)(=O)NC1CC1"
# output < 0.01 µM

This collection of values is drawn from patent US8440652B2.
